Data provenance is ChEMBL document CHEMBL4406835.

# MEASUREMENT_TARGET: Transient receptor potential cation channel subfamily V member 1 (Homo sapiens, UniProt Q8NER1)
# Sequence (Q8NER1 whole entry): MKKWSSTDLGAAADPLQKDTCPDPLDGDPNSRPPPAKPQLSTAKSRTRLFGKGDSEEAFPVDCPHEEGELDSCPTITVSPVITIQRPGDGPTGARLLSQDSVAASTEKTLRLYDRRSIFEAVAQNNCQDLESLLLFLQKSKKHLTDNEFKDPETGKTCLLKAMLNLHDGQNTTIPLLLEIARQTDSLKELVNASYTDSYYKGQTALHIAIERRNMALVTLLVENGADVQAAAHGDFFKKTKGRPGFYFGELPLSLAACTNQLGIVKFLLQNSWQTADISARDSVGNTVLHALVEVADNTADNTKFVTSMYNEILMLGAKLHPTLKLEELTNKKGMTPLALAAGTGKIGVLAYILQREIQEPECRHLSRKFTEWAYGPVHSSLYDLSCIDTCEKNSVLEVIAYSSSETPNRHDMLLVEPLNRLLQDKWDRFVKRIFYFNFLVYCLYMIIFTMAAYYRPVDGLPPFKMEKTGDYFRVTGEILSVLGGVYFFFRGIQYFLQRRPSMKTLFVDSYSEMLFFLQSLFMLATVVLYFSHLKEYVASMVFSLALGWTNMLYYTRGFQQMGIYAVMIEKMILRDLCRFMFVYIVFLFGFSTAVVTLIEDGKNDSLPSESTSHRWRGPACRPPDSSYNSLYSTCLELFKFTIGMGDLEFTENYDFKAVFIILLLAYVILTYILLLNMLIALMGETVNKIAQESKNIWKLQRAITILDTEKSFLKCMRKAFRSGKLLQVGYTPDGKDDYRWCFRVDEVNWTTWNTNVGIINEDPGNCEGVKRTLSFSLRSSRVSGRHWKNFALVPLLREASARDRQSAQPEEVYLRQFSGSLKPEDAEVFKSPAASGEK
# ASSAY_COMMENT: Agonist activity at recombinant human TRPV1 expressed in CHO cells assessed as increase in calcium uptake incubated for 5 mins in presence of 45Ca2+ and capsaicin by liquid scintillation counter
# Assay type: cell-based
# CONDITION_DESCRIPTION: cho
PROPERTY_NAME: EC50

>>> df
                                   compound  property_name     reading
0  CN(C)C1(Cc2ccccc2)CCN(c2cc(C(F)(F)F)ccc2CNC(=O)Nc2cccc3[nH]c(=O)ccc23)CC1           EC50  Not Active
1  CN(C)C1(Cc2ccccc2)CCN(c2cc(C(F)(F)F)ccc2CNC(=O)Nc2ccc3cccnc3c2)CC1           EC50  Not Active
2  CC1CCN(c2nc(C(F)(F)F)ccc2CNC(=O)[C@@H](C)c2ccc(NS(C)(=O)=O)c(F)c2)CC1 (racemic)           EC50  Not Active
3  CN(C)C1(Cc2ccccc2)CCN(c2cc(C(F)(F)F)ccc2CNC(=O)Nc2cccc3c2CC(O)CC3)CC1 (stereo not drawn)           EC50  Not Active
4  CN(C)C1(Cc2ccccc2)CCN(c2cc(C(F)(F)F)ccc2CNC(=O)NCc2ccc(NS(C)(=O)=O)c(F)c2)CC1           EC50  Not Active
5  CN(C)C1(Cc2ccccc2)CCN(c2cc(C(F)(F)F)ccc2CNC(=O)Nc2ccc(CNS(C)(=O)=O)c(F)c2)CC1           EC50  Not Active
6  CN(C)C1(Cc2ccccc2)CCN(c2cc(C(F)(F)F)ccc2CNC(=O)Nc2cccc3cnccc23)CC1           EC50  Not Active
7  CN(C)C1(Cc2ccccc2)CCN(c2cc(C(F)(F)F)ccc2CNC(=O)Nc2ccc(CNS(N)(=O)=O)c(F)c2)CC1           EC50  Not Active

* * *

# MEASUREMENT_TARGET: UniProtKB Q8NER1
# ASSAY_COMMENT: Agonist activity at recombinant human TRPV1 expressed in CHO cells assessed as increase in calcium uptake incubated for 5 mins in presence of 45Ca2+ and capsaicin by liquid scintillation counter
# Type: cell-based
# CONDITION_DESCRIPTION: read-out: EC50
pEC50: −log10 of the molar value.
PROPERTY_NAME: pEC50

>>> print(df.to_string())
                              smiles_string  property_name  reading
0  CN(C)C1(Cc2ccccc2)CCN(c2cc(C(F)(F)F)ccc2CNC(=O)Nc2cccc3c(=O)[nH]ccc23)CC1          pEC50     7.36

* * *

# MEASUREMENT_TARGET: Transient receptor potential cation channel subfamily V member 1 (Homo sapiens, UniProt Q8NER1)
# ASSAY_COMMENT: Displacement of [3H]RTX from recombinant human TRPV1 expressed in CHO cells incubated for 60 mins by liquid scintillation counter
# Assay type: cell-based
pKi: −log10 of the molar value.
Would you mind labelling by pKi? At or over 8 is fulfilled, under is not fulfilled.

>>> df
                                    molecule  assigned_class
 0  CN(C)C1(Cc2ccccc2)CCN(c2cc(C(F)(F)F)ccc2CNC(=O)Nc2cccc3ccc(O)cc23)CC1       fulfilled
 1  CN(C)C1(Cc2ccccc2)CCN(c2cc(C(F)(F)F)ccc2CNC(=O)Nc2ccc(CO)c(F)c2)CC1   not fulfilled
 2  CN(C)C1(Cc2ccccc2)CCN(c2cc(C(F)(F)F)ccc2CNC(=O)Nc2ccc(NS(C)(=O)=O)c(F)c2)CC1   not fulfilled
 3  CN(C)C1(Cc2ccccc2)CCN(c2cc(C(F)(F)F)ccc2CNC(=O)Nc2cccc3cnccc23)CC1       fulfilled
 4  CN(C)C1(Cc2ccccc2)CCN(c2cc(C(F)(F)F)ccc2CNC(=O)NCc2ccc(NS(C)(=O)=O)c(F)c2)CC1   not fulfilled
 5  CC(C(=O)NCc1ccc(C(F)(F)F)cc1N1CCC(Cc2ccccc2)(N(C)C)CC1)c1ccc(NS(C)(=O)=O)c(F)c1 (stereo not drawn)       fulfilled
 6  CN(C)C1(Cc2ccccc2)CCN(c2cc(C(F)(F)F)ccc2CNC(=O)Nc2ccc3c(c2)OCC3)CC1   not fulfilled
 7  CN(C)C1(Cc2ccccc2)CCN(c2cc(C(F)(F)F)ccc2CNC(=O)Nc2ccc3cnccc3c2)CC1   not fulfilled
 8  CN(C)C1(Cc2ccccc2)CCN(c2cc(C(F)(F)F)ccc2CNC(=O)Nc2cccc3c2CC(O)CC3)CC1 (stereo not drawn)       fulfilled
 9  CN(C)C1(Cc2ccccc2)CCN(c2cc(C(F)(F)F)ccc2CNC(=O)Nc2cccc3[nH]c(=O)ccc23)CC1       fulfilled
10  CN(C)C1(Cc2ccccc2)CCN(c2cc(C(F)(F)F)ccc2CNC(=O)Nc2cccc3c(=O)[nH]ccc23)CC1   not fulfilled

* * *

# MEASUREMENT_TARGET: Mu-type opioid receptor (Homo sapiens, UniProt P35372)
# Sequence (P35372 whole entry): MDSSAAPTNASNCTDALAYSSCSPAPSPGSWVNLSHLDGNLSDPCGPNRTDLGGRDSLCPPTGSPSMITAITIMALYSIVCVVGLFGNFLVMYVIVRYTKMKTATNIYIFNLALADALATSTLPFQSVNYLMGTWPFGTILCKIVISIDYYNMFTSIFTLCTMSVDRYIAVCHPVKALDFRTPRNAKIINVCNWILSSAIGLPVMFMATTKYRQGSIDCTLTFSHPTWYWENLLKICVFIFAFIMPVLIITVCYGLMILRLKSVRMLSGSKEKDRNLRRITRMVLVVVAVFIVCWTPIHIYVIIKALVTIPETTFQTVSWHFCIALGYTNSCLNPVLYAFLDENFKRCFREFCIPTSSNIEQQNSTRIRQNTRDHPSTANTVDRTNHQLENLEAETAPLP
PROPERTY_NAME: log10 Ki (log10 of the value in nM)

In [3]: df
Out[3]:
                                    compound  property_name  reading
 0  CN(C)C1(Cc2ccccc2)CCN(c2cc(C(F)(F)F)ccc2CNC(=O)Nc2cccc3cnccc23)CC1       log10 Ki     2.71
 1  CN(C)C1(Cc2ccccc2)CCN(c2cc(C(F)(F)F)ccc2CNC(=O)Nc2ccc3cnccc3c2)CC1       log10 Ki     1.23
 2  CN(C)C1(Cc2ccccc2)CCN(c2cc(C(F)(F)F)ccc2CNC(=O)Nc2ccc(CNS(C)(=O)=O)c(F)c2)CC1       log10 Ki     2.51
 3  CN(C)C1(Cc2ccccc2)CCN(c2cc(C(F)(F)F)ccc2CNC(=O)Nc2ccc(CO)c(F)c2)CC1       log10 Ki     2.38
 4  CN(C)C1(Cc2ccccc2)CCN(c2cc(C(F)(F)F)ccc2CNC(=O)Nc2cccc3[nH]c(=O)ccc23)CC1       log10 Ki     2.38
 5  CN(C)C1(Cc2ccccc2)CCN(c2cc(C(F)(F)F)ccc2CNC(=O)Nc2ccc3c(c2)OCC3)CC1       log10 Ki     2.35
 6  CN(C)C1(Cc2ccccc2)CCN(c2cc(C(F)(F)F)ccc2CNC(=O)Nc2ccc(CNS(N)(=O)=O)c(F)c2)CC1       log10 Ki     1.86
 7  CN(C)C1(Cc2ccccc2)CCN(c2cc(C(F)(F)F)ccc2CNC(=O)Nc2ccc3ccncc3c2)CC1       log10 Ki     2.25
 8  CN(C)C1(Cc2ccccc2)CCN(c2cc(C(F)(F)F)ccc2CNC(=O)Nc2cccc3ccc(O)cc23)CC1       log10 Ki     2.14
 9  CN(C)C1(Cc2ccccc2)CCN(c2cc(C(F)(F)F)ccc2CNC(=O)Nc2cccc3c(=O)[nH]ccc23)CC1       log10 Ki     2.02
10  CN(C)C1(Cc2ccccc2)CCN(c2cc(C(F)(F)F)ccc2CNC(=O)NCc2ccc(NS(C)(=O)=O)c(F)c2)CC1       log10 Ki     1.88
11  CC(C(=O)NCc1ccc(C(F)(F)F)cc1N1CCC(Cc2ccccc2)(N(C)C)CC1)c1ccc(NS(C)(=O)=O)c(F)c1 (configuration not stated)       log10 Ki     2.63
12  CN(C)C1(Cc2ccccc2)CCN(c2cc(C(F)(F)F)ccc2CNC(=O)Nc2cccc3ccncc23)CC1       log10 Ki     2.31
13  CN(C)C1(Cc2ccccc2)CCN(c2cc(C(F)(F)F)ccc2CNC(=O)Nc2ccc(NS(C)(=O)=O)c(F)c2)CC1       log10 Ki     2.57
14  CN(C)C1(Cc2ccccc2)CCN(c2cc(C(F)(F)F)ccc2CNC(=O)Nc2cccc3c2CC(O)CC3)CC1 (configuration not stated)       log10 Ki     2.42
15  CN(C)C1(Cc2ccccc2)CCN(c2cc(C(F)(F)F)ccc2CNC(=O)Nc2ccc3cccnc3c2)CC1       log10 Ki     2.22
16  CN(C)C1(Cc2ccccc2)CCN(c2cc(C(F)(F)F)ccc2CNC(=O)Nc2cccc3ncccc23)CC1       log10 Ki     1.46

* * *

# MEASUREMENT_TARGET: Transient receptor potential cation channel subfamily V member 1 (Homo sapiens, UniProt Q8NER1)
# ASSAY_COMMENT: Displacement of [3H]RTX from recombinant human TRPV1 expressed in CHO cells incubated for 60 mins by liquid scintillation counter
# Assay type: cell-based
pKi: −log10 of the molar value.
PROPERTY_NAME: pKi

>>> print(df.to_string())
                                   compound  reading
0  CN(C)C1(Cc2ccccc2)CCN(c2cc(C(F)(F)F)ccc2CNC(=O)Nc2ccc(CNS(C)(=O)=O)c(F)c2)CC1     7.79
1  CN(C)C1(Cc2ccccc2)CCN(c2cc(C(F)(F)F)ccc2CNC(=O)Nc2ccc3cccnc3c2)CC1     7.85
2  CN(C)C1(Cc2ccccc2)CCN(c2cc(C(F)(F)F)ccc2CNC(=O)Nc2cccc3ncccc23)CC1     7.97
3  CN(C)C1(Cc2ccccc2)CCN(c2cc(C(F)(F)F)ccc2CNC(=O)Nc2ccc3ccncc3c2)CC1     8.13
4  CN(C)C1(Cc2ccccc2)CCN(c2cc(C(F)(F)F)ccc2CNC(=O)Nc2ccc(CNS(N)(=O)=O)c(F)c2)CC1     7.82
5  CN(C)C1(Cc2ccccc2)CCN(c2cc(C(F)(F)F)ccc2CNC(=O)Nc2cccc3ccncc23)CC1     7.91
6  CC1CCN(c2nc(C(F)(F)F)ccc2CNC(=O)[C@@H](C)c2ccc(NS(C)(=O)=O)c(F)c2)CC1 (racemic)     8.10
